assay: Clearance study, liver microsomes (mice); details: mouse, pH 7.4
Experimental readout: microsomal CLint at 1 μM (µL/min/mg)
Report only the number, with the unit µL/min/mg understood.

C[C@@H]1CCC[C@H](C)N1NC(=O)c1ccc2c(c1)N=C(c1cccc(F)c1)c1ccccc1S2 [drawing 1758]	659
O=C(NCc1cccs1)c1ccc2c(c1)N=C(c1ccc(Cl)cc1)c1ccccc1S2 [drawing 1735]	90
COc1ccc(C2=Nc3cc(C(=O)NCC(C)C)ccc3Sc3ccccc32)cc1 [drawing 1708]	218
O=C(NCc1cccc(Cl)c1)c1ccc2c(c1)N=C(N1CCC(F)(F)CC1)c1ccccc1S2 [drawing 1800]	120
Cc1ccsc1C1=Nc2cc(C(=O)NCc3ccco3)ccc2Sc2ccccc21 [drawing 1762]	755
O=C(NCc1ccco1)c1ccc2c(c1)N=C(c1ccc(Cl)cc1)c1ccccc1S2 [drawing 1803]	97
O=C(NCc1cccc(Cl)c1)c1ccc2c(c1)N=C(c1ccc(Cl)cc1)c1cc(F)ccc1S2 [drawing 1686]	96
O=C(NCc1cccnc1)c1ccc2c(c1)N=C(c1ccc(Cl)c(Cl)c1)c1ccccc1S2 [drawing 1664]	38
O=C(NCCc1cccnc1)c1ccc2c(c1)N=C(c1cccc(Cl)c1)c1ccccc1S2 [drawing 1770]	82
O=C(NCc1ccccc1)c1ccc2c(c1)N=C(c1cccc(Cl)c1)c1ccccc1S2 [drawing 1767]	205

Looking up CCCCNC(=O)c1ccc2c(c1)N=C(c1ccc(Cl)cc1)c1ccccc1S2 [drawing 1661] , I see its microsomal CLint at 1 μM listed as 99

Looking up CC(C)CNC(=O)c1ccc2c(c1)N=C(c1ccc(Cl)cc1F)c1ccccc1S2 [drawing 1677] , I see its microsomal CLint at 1 μM listed as 98
